B1: CPEB3 Ribozyme (parent)
chain: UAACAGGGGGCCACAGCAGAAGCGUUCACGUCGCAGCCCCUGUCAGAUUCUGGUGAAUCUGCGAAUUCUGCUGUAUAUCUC

Variants of: B1
Assay: self-cleavage, relative activity (ratio to wild type); higher = more cleavage; in vitro, sequencing
So basically: self-cleavage at 0.5 or higher? That is class 1. Lower than 0.5? That is class 0.

A21C U72A :: class 0
G7A A15U :: class 0
A5C A28U :: class 1

Then this variant:
Exam item: Given A56U U66A , state whether its self-cleavage is at least 0.5.
Marked response: class 0
